Test system: rumen inoculum
testName: Rumen in vitro model
Parameters: species or system steer
conditionSummary: 5 ppm
A collection of compounds and their measured TOTAL

compound	TOTAL / % OF CONTROL
CN[C@H]1C(=O)N[C@H]2C(=O)N[C@H](C(=O)N[C@H]3C(=O)N[C@H]4C(=O)N[C@H](C(=O)N[C@H](C(=O)O)c5cc(O)cc(O[C@H]6O[C@H](CO)[C@@H](O)[C@H](O)[C@@H]6O)c5-c5cc4ccc5O)[C@H](O)c4cc(Cl)c(c(Cl)c4)Oc4cc3cc(c4O[C@@H]3O[C@H](C(=O)O)[C@@H](O)[C@H](O)[C@H]3NC(=O)CCCCCCCC(C)C)Oc3ccc(cc3Cl)[C@H]2O)c2cc(cc(O)c2Cl)Oc2cc1ccc2O [AAD 216B]	121
CCCCCCCCCC(=O)N[C@H]1[C@H](Oc2c3cc4cc2Oc2c(Cl)cc(cc2Cl)[C@@H](O)[C@@H]2NC(=O)[C@H](NC(=O)[C@@H]4NC(=O)[C@H]4NC(=O)[C@H](NC(=O)[C@H](NC)c5ccc(O)c(c5)Oc5cc(O)c(Cl)c4c5)[C@H](O)c4ccc(c(Cl)c4)O3)c3ccc(O)c(c3)-c3c(O[C@H]4O[C@H](CO)[C@@H](O)[C@H](O)[C@@H]4O)cc(O)cc3[C@@H](C(=O)O)NC2=O)O[C@H](C(=O)O)[C@@H](O)[C@@H]1O [AAD 216A]	93
CN[C@H]1C(=O)N[C@H]2C(=O)N[C@H](C(=O)N[C@H]3C(=O)N[C@H]4C(=O)N[C@H](C(=O)N[C@H](C(=O)O)c5cc(O)cc(O[C@H]6O[C@H](CO)[C@@H](O)[C@H](O)[C@@H]6O)c5-c5cc4ccc5O)[C@H](O)c4cc(Cl)c(c(Cl)c4)Oc4cc3cc(c4O[C@@H]3O[C@H](C(=O)O)[C@@H](O)[C@H](O)[C@H]3NC(=O)CCCCCCCCC(C)C)Oc3ccc(cc3Cl)[C@H]2O)c2cc(cc(O)c2Cl)Oc2cc1ccc2O	111
CN[C@H](CC(C)C)C(=O)N[C@H]1C(=O)N[C@@H](CC(N)=O)C(=O)N[C@H]2C(=O)N[C@H]3C(=O)N[C@H](C(=O)N[C@H](C(=O)O)c4cc(O)cc(O)c4-c4cc3ccc4O)[C@H](O)c3ccc(c(Cl)c3)Oc3cc2cc(c3O[C@@H]2O[C@H](CO)[C@@H](O)[C@H](O)[C@H]2O[C@H]2C[C@](C)(N)[C@H](O)[C@H](C)O2)Oc2ccc(cc2Cl)[C@H]1O	108
CC[C@@]1([C@H]2O[C@H]([C@H]3O[C@@](O)(CO)[C@H](C)C[C@@H]3C)C[C@H]2C)CC[C@H]([C@@]2(C)CC[C@]3(C[C@H](O)[C@@H](C)[C@@H]([C@H](C)[C@H](OC)[C@@H](C)C(=O)O)O3)O2)O1 [Monensin Sodium]	104

Values were extracted from patent US4797280A.
